Overview of reported protein stability index across a group of sequences:
Assay: protein stability index of a GFP-peptide fusion (yeast GPS) (PSI 1-4); higher = more stable; sorted into four equal gates, so the index is relative within each strain
Settings: san1∆
Just the number.

Worked examples follow.
{"columns": ["biosequence", "reading"],
 "data": [
  ["SPPPQTHQSPPPPPQQS [SNF5]", 2.75],
  ["DCLDKLLNDECTESTRE [SNF2]", 3.48],
  ["YSQSPPRSPGRSPTRRL [SMC4]", 2.98]
]}

Any idea what protein stability index was measured for NSSNYFGELQFAFLNAM [AAR2] ?
2.69

Query LPKYKEKKAASAKQTAP [MED7] next
2.74

Query AAFKDIAKRQFKEILTV [RRP40] next
2.58

Query PSADGADKKDDSESNSE [ITC1] next
3.34

Hello, the source for this data is the supplement of paper PMC9732359, in case you need it.
